FYI, the data here is from PubChem BioAssay (NCI).

Quick list: growth per entry.
- System: SK-MEL-5 melanoma
- Test name: NCI-60 one-dose screen, 48 h (100 = growth as untreated, 0 = no growth, -100 = all killed)
- Assay context: 10 µM unless noted
Compounds without any hit were thinned out: in the full panel of roughly 83,000, 20% have a hit.
Answer in %, number only, no unit symbol.

> print(dat)
                           smiles.structure             target  value.measured
1  CC(=O)Nc1ccc(C(=O)Nc2cc(-c3ccccc3)ccc2N)cc1  SK-MEL-5 melanoma            68.3
2  Cc1[nH]c(C(=O)Nc2ccccc2OCc2cccc(C(=O)NCCN)c2)c(Cl)c1Cl  SK-MEL-5 melanoma            95.3

Switching to the query record.
molecule CN1CCCC1=Nc1ccccc1 , growth observed: 104
